# key: entry, value: pKi
- MEASURED_TARGET: Sodium-dependent dopamine transporter (Rattus norvegicus, UniProt P23977)
- Sequence (P23977 whole entry): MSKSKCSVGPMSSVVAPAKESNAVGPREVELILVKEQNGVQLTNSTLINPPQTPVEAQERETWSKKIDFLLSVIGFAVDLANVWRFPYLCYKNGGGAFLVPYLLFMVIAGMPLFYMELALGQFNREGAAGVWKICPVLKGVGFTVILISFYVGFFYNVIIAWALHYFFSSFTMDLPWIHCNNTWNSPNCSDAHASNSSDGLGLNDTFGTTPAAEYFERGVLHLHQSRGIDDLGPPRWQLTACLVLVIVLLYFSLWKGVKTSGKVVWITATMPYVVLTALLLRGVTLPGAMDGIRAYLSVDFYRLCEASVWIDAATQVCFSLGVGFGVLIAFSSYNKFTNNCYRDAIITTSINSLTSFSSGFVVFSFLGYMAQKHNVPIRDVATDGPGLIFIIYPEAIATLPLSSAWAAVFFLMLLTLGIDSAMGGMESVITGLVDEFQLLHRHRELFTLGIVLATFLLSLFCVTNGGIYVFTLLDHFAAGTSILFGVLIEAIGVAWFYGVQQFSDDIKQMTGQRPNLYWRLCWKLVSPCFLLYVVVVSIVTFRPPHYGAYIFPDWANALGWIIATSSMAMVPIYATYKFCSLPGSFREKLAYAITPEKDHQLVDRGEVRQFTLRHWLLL
pKi: −log10 of the molar value.
ENDPOINT: pKi

{"columns": ["COMPOUND", "ENDPOINT", "REPORTED_RESULT"],
 "data": [
  ["CN1[C@@H]2CC[C@H]1C[C@@H](OC(c1ccc(F)cc1)c1ccc(Br)cc1)C2 (stereo not given in full)", "pKi", 7.82],
  ["CN1[C@@H]2CC[C@H]1C[C@@H](OC(c1ccccc1)c1cccc(Br)c1)C2 (stereo not given in full)", "pKi", 7.57],
  ["CN1[C@@H]2CC[C@H]1C[C@@H](OC(c1ccc(F)cc1)c1cccc(Cl)c1)C2 (stereo not given in full)", "pKi", 7.63],
  ["Cc1cccc(C(O[C@H]2C[C@H]3CC[C@@H](C2)N3C)c2ccc(F)cc2)c1 (stereo not given in full)", "pKi", 7.51],
  ["CN1[C@@H]2CC[C@H]1C[C@@H](OC(c1ccc(F)cc1)c1cccc(Br)c1)C2 (stereo not given in full)", "pKi", 7.42]
]}

Just for reference, ChEMBL document CHEMBL1132657 is where these values come from.
